The reported measurements were obtained from ChEMBL document CHEMBL1201862.

Please respond with reported GI50 for every item in the list.
Tested on: MDA-MB-435
ASSAY COMMENT: NCI tumour cell line growth inhibition, 48 h
Calls of active or inactive are those of the source. No stated cut-off is given here; in the data, active = GI50 up to about 1.1 µM and inactive = higher.

# example entries with known answers
O=Cc1c2c(cc3c1CC1(C3)Cc3cc4c(c(C=O)c3C1)CCC4)CCC2 ... 45.6 µM (inactive)
CCN(CC)CC1CCCCN1CC(=O)N1c2ccccc2NC(=O)c2ccccc21 (stereo not given) ... > 100 µM (inactive)
CC(=O)OCC1OC(n2c(-c3ccccc3)c(C)c(C)c(C#N)c2=S)C(OC(C)=O)C(OC(C)=O)C1OC(C)=O (stereo not given) ... 57.5 µM (inactive)

Hi team, please reply with GI50 for each item in this list.
1. C=CC(C)(C)C1(CC(OC)OC)C(=O)N(C)c2ccccc21 (stereo not given)
2. O=C(NCc1cccc(C(F)(F)F)c1)c1cc2sccc2nc1C(F)(F)F

["> 25 µM (inactive)", "> 100 µM (inactive)"]

====

Listed here: compounds with reported GI50 for HCT-15.
Answers are plain numbers, in µM.

Each of the following entries comes with a recorded value; kindly state GI50 for each.
1. C=C(C)[C@]12CC(C)C34OC(/C=C\C=C\CCCCCCCCC)(O[C@@H]1[C@@H]3[C@@H]1O[C@]1(CO)[C@@H](O)[C@]1(O)C(=O)C(C)=C[C@@H]41)O2 (stereo not given in full)
2. CN1C(=O)[C@H](c2c[nH]c3ccccc23)[C@H](c2c[nH]c3ccccc23)C1=O
3. COC(=O)C(F)C(Br)C(=O)OC (stereo not given)

1. 12.4
2. 24.8
3. 1.82

====

System: UACC-62
ASSAY COMMENT: NCI tumour cell line growth inhibition, 48 h
Activity calls are given as the source filed them. Cut-off read from the data, not from the text of the source: active = GI50 up to about 1.1 µM and inactive = higher.
Record form. Attribute: GI50. Fill in for each entry.

Dear reader, for each entry below, please note its GI50.
1. Cn1cc2c(=O)n3ncn(-c4ccc(Br)cc4)c3nc2n1
2. NNC(=O)CC(=O)Nc1ccccc1Cl

["> 100 µM (inactive)", "> 100 µM (inactive)"]

# batch: return GI50 for each of the 2 molecules below
1. O=[N+]([O-])c1ccc(Cl)c(C2CC(c3cccc4ccccc34)=Nc3ccccc3S2)c1 (stereo unspecified)
2. CN(C)Cc1cc(C(F)(F)F)ccc1C(O)(c1ccccc1)c1ccccc1

15.4 µM (inactive)
13.2 µM (inactive)

Look at each molecule and report its GI50.
1. Nc1nc2c(c(=O)[nH]1)N=C(COP(=O)(O)OP(=O)(O)O)CN2
2. O=C1c2scc(-c3ccc(Cl)cc3)c2-n2cccc21

1. > 100 µM (inactive)
2. 7.13 µM (inactive)

====

System: RXF 393
ASSAY COMMENT: NCI tumour cell line growth inhibition, 48 h
Active and inactive are the calls of the source. Cut-off read from the data, not from the text of the source: active = GI50 up to about 1.1 µM and inactive = higher.
Please respond with reported GI50 for every item in the list.

COc1ccc(-c2[nH]c(=O)n(C3OC(CO)C(O)C(O)C3O)c(=O)c2C#N)cc1 (stereo unspecified) ... > 100 µM (inactive)
CCOc1ccc(NC(=O)/C(=C/c2ccccc2)C(C)=O)cc1 ... 5.32 µM (inactive)

Record GI50 for all entries; do not skip any.
1. C=CCN1C(=O)CNC1=S
2. Cc1c(N/C=C(\C#N)C(=O)c2ccc(Cl)cc2)c(=O)n(-c2ccccc2)n1C

> 100 µM (inactive)
> 100 µM (inactive)

I have 6 compounds here; please give me GI50 for each one.
1. C=CC(C)(C)C1(CC(OC)OC)C(=O)N(C)c2ccccc21 (stereo unspecified)
2. COC(=O)C1(C#N)C(C)(C)N=C(c2ccccc2)C12CCCCC2 (stereo unspecified)
3. COc1ccc(/C=C(\C(C)=O)C(=O)Nc2ccccc2)cc1
4. CNC(=O)C(C)NC(=O)C(Cc1ccccc1)NC(=O)c1ccccc1 (stereo unspecified)
5. CC(CSc1nc2c(c(=N)n1-c1ccccc1)c(=S)n(-c1ccccc1)c(=S)n2-c1ccccc1)CN(C)C (stereo unspecified)
6. CN1CN(c2ccccc2)C2(CCN(CCCSc3ccccc3NC(=O)/C=C/c3ccccc3)CC2)C1=O

1: > 25 µM (inactive); 2: > 100 µM (inactive); 3: > 100 µM (inactive); 4: > 100 µM (inactive); 5: 1.59 µM (inactive); 6: 7.55 µM (inactive)

Each compound below has a reported value. Please supply its GI50.
1. Cn1c(=O)c(C#N)c(O)c2cc3ccccc3nc21
2. CCNc1c(C(=O)N(CC)CC)c(=O)[nH]c2ncccc12
3. C=CCc1cc(C=C(C#N)C#N)cc(OC)c1O
4. O=C1N/C(=N/N=C\C(O)C(O)C(O)CO)N/C1=C/c1ccc(Cl)cc1 (stereo unspecified)

["> 100 µM (inactive)", "> 100 µM (inactive)", "24.8 µM (inactive)", "92 µM (inactive)"]
